Entries and their measured KINOMEscan: PRKG2 follow.
molecular target: panel of 442 kinases (Homo sapiens); construct: purchased KINOMEscan; assay type: binding; conditions: Compound Concentration 10 µM
Just the number, please, no unit after it.

COc1cc(C(=O)N2CCC(N3CCN(C)CC3)CC2)ccc1Nc1ncc2c(n1)N(C1CCCC1)c1ccccc1C(=O)N2C [Compound 25] = 98

Record lookup: for panel of 442 kinases (Homo sapiens), what KINOMEscan: PRKG2 belongs to COc1cc(C(=O)N2CCC(N3CCN(C)CC3)CC2)ccc1Nc1ncc2c(n1)N1CCc3cccc(c31)C(=O)N2C [Compound 24] ?
98

So what KINOMEscan: PRKG2 did CCOc1cc(C(=O)N2CCC(N3CCN(C)CC3)CC2)ccc1Nc1ncc2c(n1)N(C1CCCC1)c1ccccc1C(=O)N2C [Compound 26] get with panel of 442 kinases (Homo sapiens)?
100

Record lookup: for panel of 442 kinases (Homo sapiens), what KINOMEscan: PRKG2 belongs to COc1cc(C(=O)N2CCC(N3CCN(C)CC3)CC2)ccc1Nc1ncc2c(n1)N(C)c1ccccc1C(=O)N2C [15 (LRRK2-IN-1)] ?
74

====

molecular target: panel of 442 kinases (Homo sapiens, UniProt Q9UK32); construct: purchased KINOMEscan; format: binding; details: kinase RSK4(Kin.Dom.1-N-terminal); compound concentration 10 µM
Sequence (Q9UK32 whole entry): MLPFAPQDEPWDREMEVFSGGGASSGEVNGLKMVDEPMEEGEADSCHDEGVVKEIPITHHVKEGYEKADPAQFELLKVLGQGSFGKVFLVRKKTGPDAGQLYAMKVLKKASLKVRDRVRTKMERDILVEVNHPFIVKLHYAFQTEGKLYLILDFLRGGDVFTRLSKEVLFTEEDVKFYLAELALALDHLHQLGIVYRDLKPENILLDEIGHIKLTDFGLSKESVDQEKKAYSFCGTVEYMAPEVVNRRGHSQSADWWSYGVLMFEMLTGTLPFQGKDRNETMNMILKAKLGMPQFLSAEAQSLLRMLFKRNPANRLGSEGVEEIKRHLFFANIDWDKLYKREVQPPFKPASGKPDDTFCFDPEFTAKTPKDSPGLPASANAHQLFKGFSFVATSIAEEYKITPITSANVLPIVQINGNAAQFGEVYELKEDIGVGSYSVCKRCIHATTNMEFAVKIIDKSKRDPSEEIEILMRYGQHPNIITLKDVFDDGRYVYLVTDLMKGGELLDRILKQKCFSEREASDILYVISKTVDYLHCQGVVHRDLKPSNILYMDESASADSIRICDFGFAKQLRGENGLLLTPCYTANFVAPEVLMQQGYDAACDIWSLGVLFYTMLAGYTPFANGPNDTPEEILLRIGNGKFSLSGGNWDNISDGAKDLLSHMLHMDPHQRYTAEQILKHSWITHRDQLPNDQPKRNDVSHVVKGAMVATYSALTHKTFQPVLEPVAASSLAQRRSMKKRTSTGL
Catalogue of % Ctrl, RSK4(Kin.Dom.1-N-terminal) values
Respond with the figure and its unit, in that order.

COc1cc(C(=O)N2CCC(N3CCN(C)CC3)CC2)ccc1Nc1ncc2c(n1)N(C1CCCC1)c1ccccc1C(=O)N2C [Compound 25] = 100 % Ctrl
CCOc1cc(C(=O)N2CCC(N3CCN(C)CC3)CC2)ccc1Nc1ncc2c(n1)N(C1CCCC1)c1ccccc1C(=O)N2C [Compound 26] = 100 % Ctrl
COc1cc(C(=O)N2CCC(N3CCN(C)CC3)CC2)ccc1Nc1ncc2c(n1)N1CCc3cccc(c31)C(=O)N2C [Compound 24] = 100 % Ctrl

Now look at this one.
Give the measured % Ctrl, RSK4(Kin.Dom.1-N-terminal) of COc1cc(C(=O)N2CCC(N3CCN(C)CC3)CC2)ccc1Nc1ncc2c(n1)N(C)c1ccccc1C(=O)N2C [15 (LRRK2-IN-1)] .
92 % Ctrl

====

biological target: panel of 442 kinases (Homo sapiens); construct: purchased KINOMEscan; type: binding; settings: kinase WEE1; compound concentration 10 µM
Quantity Measured: % Ctrl, WEE1
Answer with the value and then the unit.

COc1cc(C(=O)N2CCC(N3CCN(C)CC3)CC2)ccc1Nc1ncc2c(n1)N(C1CCCC1)c1ccccc1C(=O)N2C [Compound 25] = 98 % Ctrl
CCOc1cc(C(=O)N2CCC(N3CCN(C)CC3)CC2)ccc1Nc1ncc2c(n1)N(C1CCCC1)c1ccccc1C(=O)N2C [Compound 26] = 100 % Ctrl
COc1cc(C(=O)N2CCC(N3CCN(C)CC3)CC2)ccc1Nc1ncc2c(n1)N(C)c1ccccc1C(=O)N2C [15 (LRRK2-IN-1)] = 100 % Ctrl

Give the measured % Ctrl, WEE1 of COc1cc(C(=O)N2CCC(N3CCN(C)CC3)CC2)ccc1Nc1ncc2c(n1)N1CCc3cccc(c31)C(=O)N2C [Compound 24] .
82 % Ctrl

====

Entries annotated with measured KINOMEscan: FER
biological target: panel of 442 kinases (Homo sapiens, UniProt P16591); construct: purchased KINOMEscan; type: binding; conditions: Compound Concentration 10 µM
Sequence (P16591 whole entry): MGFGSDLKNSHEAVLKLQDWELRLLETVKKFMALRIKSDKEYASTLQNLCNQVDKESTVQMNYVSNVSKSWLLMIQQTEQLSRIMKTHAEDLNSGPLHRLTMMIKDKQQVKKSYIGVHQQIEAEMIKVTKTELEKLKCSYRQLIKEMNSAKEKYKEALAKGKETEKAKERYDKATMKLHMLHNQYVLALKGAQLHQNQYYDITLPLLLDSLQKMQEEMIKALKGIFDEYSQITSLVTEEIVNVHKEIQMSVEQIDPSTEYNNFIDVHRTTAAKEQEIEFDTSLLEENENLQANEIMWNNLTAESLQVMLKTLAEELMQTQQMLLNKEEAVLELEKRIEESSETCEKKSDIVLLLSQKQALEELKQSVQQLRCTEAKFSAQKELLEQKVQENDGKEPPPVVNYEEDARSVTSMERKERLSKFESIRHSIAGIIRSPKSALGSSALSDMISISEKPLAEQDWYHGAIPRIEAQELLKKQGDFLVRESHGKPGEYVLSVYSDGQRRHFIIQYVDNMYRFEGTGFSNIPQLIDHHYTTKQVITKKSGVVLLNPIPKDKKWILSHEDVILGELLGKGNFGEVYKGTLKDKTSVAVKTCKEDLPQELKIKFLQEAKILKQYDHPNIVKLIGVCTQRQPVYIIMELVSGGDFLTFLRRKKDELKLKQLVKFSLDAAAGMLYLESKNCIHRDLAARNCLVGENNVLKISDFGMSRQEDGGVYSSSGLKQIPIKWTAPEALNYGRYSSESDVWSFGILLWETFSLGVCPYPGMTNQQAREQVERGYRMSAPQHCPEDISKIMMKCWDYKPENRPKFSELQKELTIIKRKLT
No unit in the answer, please; the number alone is enough.

Provide the documented KINOMEscan: FER with panel of 442 kinases (Homo sapiens, UniProt P16591) as the system for COc1cc(C(=O)N2CCC(N3CCN(C)CC3)CC2)ccc1Nc1ncc2c(n1)N1CCc3cccc(c31)C(=O)N2C [Compound 24]
64
